System: Escherichia coli TOP10;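 note: peptides expressed intracellularly from a pBAD plasmid library in pooled LB shake-flask culture, induced with 0.3% L-arabinose, DNA abundance read by NGS, three biological replicates, DESeq2 with apeglm shrinkage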
Experiment: shrunken log2 fold change of peptide-encoding DNA abundance (4.5 h post-induction vs induction); higher = less antimicrobial activity (less host growth inhibition)
Details: time post-induction: 4.5 h; library: site-saturation at positions 5, 18, 19, 20
measuredParameter: shrunken log2 fold change
Answers are plain numbers.

Example sequences with recorded shrunken log2 fold change:
>  <itemSequence>
RRIRVRPPRLPRPRPRPLIHPRP

>  <shrunken log2 fold change>
-0.393

$$$$
>  <itemSequence>
RRIRGRPPRLPRPRPRPSKKPRP

>  <shrunken log2 fold change>
0.609

$$$$

// for each sequence below, give its shrunken log2 fold change
1. RRIRCRPPRLPRPRPRPCNTPRP
2. RRIRERPPRLPRPRPRPHYEPRP

### Response
1. -0.306
2. -0.231

// for each sequence below, give its shrunken log2 fold change
1. RRIRFRPPRLPRPRPRPHVSPRP
2. RRIRTRPPRLPRPRPRPHAKPRP
3. RRIRCRPPRLPRPRPRPLKAPRP
4. RRIRRRPPRLPRPRPRPFYAPRP
5. RRIRKRPPRLPRPRPRPYGVPRP
6. RRIRSRPPRLPRPRPRPNSHPRP

### Response
[-0.135, 0.0187, -0.249, -0.0129, 0.0715, -0.402]
